Assign Inhibition of [^3H]MLA binding to each entry below.
Biological target: α7-type neuronal nicotinic acetylcholine receptors (Rattus norvegicus, UniProt Q05941)
Construct: The brain tissue was homogenized with a Tekmar Polytron; from tissue; host or cells: rat brain membranes (whole brain without cortex and cerebellum)
Sequence (Q05941 23-502): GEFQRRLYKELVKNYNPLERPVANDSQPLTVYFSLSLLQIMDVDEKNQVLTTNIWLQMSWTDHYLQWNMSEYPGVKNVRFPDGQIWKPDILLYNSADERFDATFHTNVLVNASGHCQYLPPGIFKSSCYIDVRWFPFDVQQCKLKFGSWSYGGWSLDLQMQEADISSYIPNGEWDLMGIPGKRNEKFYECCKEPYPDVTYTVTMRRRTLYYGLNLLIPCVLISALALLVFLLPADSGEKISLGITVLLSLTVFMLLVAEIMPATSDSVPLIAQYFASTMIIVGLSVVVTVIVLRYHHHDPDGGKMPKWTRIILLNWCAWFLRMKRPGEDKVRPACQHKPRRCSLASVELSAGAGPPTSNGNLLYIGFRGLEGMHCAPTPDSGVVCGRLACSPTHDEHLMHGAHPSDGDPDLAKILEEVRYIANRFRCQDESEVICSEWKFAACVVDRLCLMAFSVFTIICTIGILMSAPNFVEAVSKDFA
Experiment: Inhibition of [^3H]methyllycaconitine (MLA) binding to rat brain membranes
Conditions: % inhibition at 100 nM analog; 3 nM [^3H]MLA; nonspecific 10 μM nicotine; 3-4 independent experiments
Numbers only, in %.

Examples from the recorded data:
Cc1cc[n+](CCCCCc2cc(CCCCC[n+]3ccc(C)cc3)c(CCCCC[n+]3ccc(C)cc3)cc2CCCCC[n+]2ccc(C)cc2)cc1.[Br-].[Br-].[Br-].[Br-]
8.0
[Br-].[Br-].[Br-].[Br-].c1ccc(-c2ccc[n+](CCCCCc3cc(CCCCC[n+]4cccc(-c5ccccc5)c4)c(CCCCC[n+]4cccc(-c5ccccc5)c4)cc3CCCCC[n+]3cccc(-c4ccccc4)c3)c2)cc1
33

For each of the compounds below, note its Inhibition of [^3H]MLA binding.
1. Cc1ccc[n+](CCCC#Cc2cc(C#CCCC[n+]3cccc(C)c3)c(C#CCCC[n+]3cccc(C)c3)cc2C#CCCC[n+]2cccc(C)c2)c1.[Br-].[Br-].[Br-].[Br-]
2. Cc1cc[n+](CCCCCc2cc(CCCCC[n+]3ccc(C)c(C)c3)c(CCCCC[n+]3ccc(C)c(C)c3)cc2CCCCC[n+]2ccc(C)c(C)c2)cc1C.[Br-].[Br-].[Br-].[Br-]
3. C(#Cc1cc(C#CCCC[n+]2cccc(Cc3ccccc3)c2)c(C#CCCC[n+]2cccc(Cc3ccccc3)c2)cc1C#CCCC[n+]1cccc(Cc2ccccc2)c1)CCC[n+]1cccc(Cc2ccccc2)c1.[Br-].[Br-].[Br-].[Br-]
4. CN1CCCC1c1ccc[n+](CCCC#Cc2cc(C#CCCC[n+]3cccc(C4CCCN4C)c3)c(C#CCCC[n+]3cccc(C4CCCN4C)c3)cc2C#CCCC[n+]2cccc(C3CCCN3C)c2)c1.[Br-].[Br-].[Br-].[Br-] (stereo not shown)
5. C(#Cc1cc(C#CCCC[n+]2ccc3c(c2)CCCC3)c(C#CCCC[n+]2ccc3c(c2)CCCC3)cc1C#CCCC[n+]1ccc2c(c1)CCCC2)CCC[n+]1ccc2c(c1)CCCC2.[Br-].[Br-].[Br-].[Br-]
6. [Br-].[Br-].[Br-].[Br-].c1ccc2c[n+](CCCCCc3cc(CCCCC[n+]4ccc5ccccc5c4)c(CCCCC[n+]4ccc5ccccc5c4)cc3CCCCC[n+]3ccc4ccccc4c3)ccc2c1

Reply text:
18
18
53
15
17
24

For each of the compounds below, note its Inhibition of [^3H]MLA binding.
1. [Br-].[Br-].[Br-].[Br-].c1c(CCCCC[n+]2ccc3c(c2)CCCC3)c(CCCCC[n+]2ccc3c(c2)CCCC3)cc(CCCCC[n+]2ccc3c(c2)CCCC3)c1CCCCC[n+]1ccc2c(c1)CCCC2
2. Cc1cc[n+](CCCC#Cc2cc(C#CCCC[n+]3ccc(C)cc3)c(C#CCCC[n+]3ccc(C)cc3)cc2C#CCCC[n+]2ccc(C)cc2)cc1.[Br-].[Br-].[Br-].[Br-]

Reply text:
[27, 3.0]

* * *

Target: α4β2 neuronal nicotinic acetylcholine receptors (Rattus norvegicus, UniProt P09483+P12390)
Construct: The brain tissue was homogenized with a Tekmar Polytron; from tissue; host or cells: rat brain membranes (whole brain without cortex and cerebellum)
Sequence (P09483 31-630): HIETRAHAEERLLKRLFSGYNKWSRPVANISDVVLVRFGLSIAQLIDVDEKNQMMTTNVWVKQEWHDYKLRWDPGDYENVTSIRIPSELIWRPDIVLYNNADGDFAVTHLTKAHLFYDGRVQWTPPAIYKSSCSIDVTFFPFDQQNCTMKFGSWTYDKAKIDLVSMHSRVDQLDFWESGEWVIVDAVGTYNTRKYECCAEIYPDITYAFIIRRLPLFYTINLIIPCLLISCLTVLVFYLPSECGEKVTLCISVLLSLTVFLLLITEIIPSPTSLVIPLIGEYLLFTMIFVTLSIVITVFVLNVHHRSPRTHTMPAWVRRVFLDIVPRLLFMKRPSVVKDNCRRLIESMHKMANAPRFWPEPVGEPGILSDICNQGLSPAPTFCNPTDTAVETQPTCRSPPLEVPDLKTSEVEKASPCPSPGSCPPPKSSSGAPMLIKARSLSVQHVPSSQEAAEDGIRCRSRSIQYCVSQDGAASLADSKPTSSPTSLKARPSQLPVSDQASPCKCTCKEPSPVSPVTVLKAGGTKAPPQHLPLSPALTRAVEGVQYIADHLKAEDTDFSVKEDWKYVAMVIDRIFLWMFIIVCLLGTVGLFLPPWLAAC
Sequence (P12390 25-500): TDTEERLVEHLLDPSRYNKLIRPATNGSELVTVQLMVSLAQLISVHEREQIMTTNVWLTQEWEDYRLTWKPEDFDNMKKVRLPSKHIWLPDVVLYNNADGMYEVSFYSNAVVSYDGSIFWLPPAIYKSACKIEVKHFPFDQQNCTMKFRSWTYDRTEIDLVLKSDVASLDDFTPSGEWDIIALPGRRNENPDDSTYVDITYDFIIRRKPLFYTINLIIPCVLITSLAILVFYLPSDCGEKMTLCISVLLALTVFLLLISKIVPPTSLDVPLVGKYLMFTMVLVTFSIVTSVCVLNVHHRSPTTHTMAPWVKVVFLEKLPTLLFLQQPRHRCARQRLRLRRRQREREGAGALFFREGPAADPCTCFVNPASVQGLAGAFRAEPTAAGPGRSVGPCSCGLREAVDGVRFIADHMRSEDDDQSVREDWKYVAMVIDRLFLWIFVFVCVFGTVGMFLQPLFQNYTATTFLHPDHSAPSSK
Assay: Inhibition of [^3H]nicotine (NIC) binding to rat brain membranes
Conditions: % inhibition at 100 nM analog; 3 nM [^3H]NIC; nonspecific 10 μM cytisine; 3-4 independent experiments
Assign Inhibition of [^3H]Nicotine binding to each entry below.
One number for each entry, in %.

Examples from the recorded data:
Cc1ccc[n+](CCCCCc2cc(CCCCC[n+]3cccc(C)c3)c(CCCCC[n+]3cccc(C)c3)cc2CCCCC[n+]2cccc(C)c2)c1.[Br-].[Br-].[Br-].[Br-]
12
C(#Cc1cc(C#CCCC[n+]2cccc(Cc3ccccc3)c2)c(C#CCCC[n+]2cccc(Cc3ccccc3)c2)cc1C#CCCC[n+]1cccc(Cc2ccccc2)c1)CCC[n+]1cccc(Cc2ccccc2)c1.[Br-].[Br-].[Br-].[Br-]
2.9
C(#Cc1cc(C#CCCC[n+]2ccc3ccccc3c2)c(C#CCCC[n+]2ccc3ccccc3c2)cc1C#CCCC[n+]1ccc2ccccc2c1)CCC[n+]1ccc2ccccc2c1.[Br-].[Br-].[Br-].[Br-]
0
Cc1cc(C)c[n+](CCCCCc2cc(CCCCC[n+]3cc(C)cc(C)c3)c(CCCCC[n+]3cc(C)cc(C)c3)cc2CCCCC[n+]2cc(C)cc(C)c2)c1.[Br-].[Br-].[Br-].[Br-]
3.7
Cc1cc[n+](CCCC#Cc2cc(C#CCCC[n+]3ccc(C)c(C)c3)c(C#CCCC[n+]3ccc(C)c(C)c3)cc2C#CCCC[n+]2ccc(C)c(C)c2)cc1C.[Br-].[Br-].[Br-].[Br-]
9.8

For each of the molecules below, note its Inhibition of [^3H]Nicotine binding.
1. Cc1ccc[n+](CCCC#Cc2cc(C#CCCC[n+]3cccc(C)c3)c(C#CCCC[n+]3cccc(C)c3)cc2C#CCCC[n+]2cccc(C)c2)c1.[Br-].[Br-].[Br-].[Br-]
2. [Br-].[Br-].[Br-].[Br-].c1c(CCCCC[n+]2ccc3c(c2)CCCC3)c(CCCCC[n+]2ccc3c(c2)CCCC3)cc(CCCCC[n+]2ccc3c(c2)CCCC3)c1CCCCC[n+]1ccc2c(c1)CCCC2
3. Cc1cc(C)c[n+](CCCC#Cc2cc(C#CCCC[n+]3cc(C)cc(C)c3)c(C#CCCC[n+]3cc(C)cc(C)c3)cc2C#CCCC[n+]2cc(C)cc(C)c2)c1.[Br-].[Br-].[Br-].[Br-]
4. [Br-].[Br-].[Br-].[Br-].c1ccc(-c2ccc[n+](CCCCCc3cc(CCCCC[n+]4cccc(-c5ccccc5)c4)c(CCCCC[n+]4cccc(-c5ccccc5)c4)cc3CCCCC[n+]3cccc(-c4ccccc4)c3)c2)cc1
5. OCCCc1ccc[n+](CCCC#Cc2cc(C#CCCC[n+]3cccc(CCCO)c3)c(C#CCCC[n+]3cccc(CCCO)c3)cc2C#CCCC[n+]2cccc(CCCO)c2)c1.[Br-].[Br-].[Br-].[Br-]
6. OCCCc1ccc[n+](CCCCCc2cc(CCCCC[n+]3cccc(CCCO)c3)c(CCCCC[n+]3cccc(CCCO)c3)cc2CCCCC[n+]2cccc(CCCO)c2)c1.[Br-].[Br-].[Br-].[Br-]
7. CN1CCCC1c1ccc[n+](CCCCCc2cc(CCCCC[n+]3cccc(C4CCCN4C)c3)c(CCCCC[n+]3cccc(C4CCCN4C)c3)cc2CCCCC[n+]2cccc(C3CCCN3C)c2)c1.[Br-].[Br-].[Br-].[Br-] (centres unmarked)

Reply text:
[11, 0.9, 0, 6.6, 0, 9.6, 7.4]

For each of the molecules below, note its Inhibition of [^3H]Nicotine binding.
1. C(#Cc1cc(C#CCCC[n+]2ccc3c(c2)CCCC3)c(C#CCCC[n+]2ccc3c(c2)CCCC3)cc1C#CCCC[n+]1ccc2c(c1)CCCC2)CCC[n+]1ccc2c(c1)CCCC2.[Br-].[Br-].[Br-].[Br-]
2. Cc1cc[n+](CCCCCc2cc(CCCCC[n+]3ccc(C)c(C)c3)c(CCCCC[n+]3ccc(C)c(C)c3)cc2CCCCC[n+]2ccc(C)c(C)c2)cc1C.[Br-].[Br-].[Br-].[Br-]

Reply text:
9.7
0.5

For each of the molecules below, note its Inhibition of [^3H]Nicotine binding.
1. [Br-].[Br-].[Br-].[Br-].c1ccc(Cc2ccc[n+](CCCCCc3cc(CCCCC[n+]4cccc(Cc5ccccc5)c4)c(CCCCC[n+]4cccc(Cc5ccccc5)c4)cc3CCCCC[n+]3cccc(Cc4ccccc4)c3)c2)cc1
2. CN1CCCC1c1ccc[n+](CCCC#Cc2cc(C#CCCC[n+]3cccc(C4CCCN4C)c3)c(C#CCCC[n+]3cccc(C4CCCN4C)c3)cc2C#CCCC[n+]2cccc(C3CCCN3C)c2)c1.[Br-].[Br-].[Br-].[Br-] (centres unmarked)
3. C(#Cc1cc(C#CCCC[n+]2cccc(-c3ccccc3)c2)c(C#CCCC[n+]2cccc(-c3ccccc3)c2)cc1C#CCCC[n+]1cccc(-c2ccccc2)c1)CCC[n+]1cccc(-c2ccccc2)c1.[Br-].[Br-].[Br-].[Br-]
4. [Br-].[Br-].[Br-].[Br-].c1ccc2c[n+](CCCCCc3cc(CCCCC[n+]4ccc5ccccc5c4)c(CCCCC[n+]4ccc5ccccc5c4)cc3CCCCC[n+]3ccc4ccccc4c3)ccc2c1
5. Cc1cc[n+](CCCC#Cc2cc(C#CCCC[n+]3ccc(C)cc3)c(C#CCCC[n+]3ccc(C)cc3)cc2C#CCCC[n+]2ccc(C)cc2)cc1.[Br-].[Br-].[Br-].[Br-]
6. Cc1cc[n+](CCCCCc2cc(CCCCC[n+]3ccc(C)cc3)c(CCCCC[n+]3ccc(C)cc3)cc2CCCCC[n+]2ccc(C)cc2)cc1.[Br-].[Br-].[Br-].[Br-]

Reply text:
1. 13
2. 38
3. 0.3
4. 6.5
5. 24
6. 12
